- TESTED SYSTEM: HLA-A*0201 (Human)
Quick rule for you: binding affinity ratio (IC50 of standard peptide / IC50 of test peptide) under 0.003 gets Yes, anything else gets No.

Solved cases below.
query: Check if binding affinity ratio (IC50 of standard peptide / IC50 of test peptide) falls below 0.003 for FLVDKNPHNT (modifications not checked) [HBV POL 363 …] .
result: Yes

query: Check if binding affinity ratio (IC50 of standard peptide / IC50 of test peptide) falls below 0.003 for GLSPTVWLSVI (modifications not checked) [HBV ENV 348 peptide …] .
result: No

query: Check if binding affinity ratio (IC50 of standard peptide / IC50 of test peptide) falls below 0.003 for ILLLCLIFL (modifications not checked) [HBV ENV 249 peptide …] .
result: Yes

Further cases:
query: Check if binding affinity ratio (IC50 of standard peptide / IC50 of test peptide) falls below 0.003 for STLPETTVV (modifications not checked) [HBV NUC 141 peptide …] .
result: Yes

query: Check if binding affinity ratio (IC50 of standard peptide / IC50 of test peptide) falls below 0.003 for GLLGFAAPFT (modifications not checked) [HBV POL 627 peptide …] .
result: No

query: Check if binding affinity ratio (IC50 of standard peptide / IC50 of test peptide) falls below 0.003 for FTSAICSVV (modifications not checked) [HBV POL 518 …] .
result: No

query: Check if binding affinity ratio (IC50 of standard peptide / IC50 of test peptide) falls below 0.003 for FTGLYSSTV (modifications not checked) [HBV POL 59 …] .
result: Yes

query: Check if binding affinity ratio (IC50 of standard peptide / IC50 of test peptide) falls below 0.003 for VLGGCRHKL (modifications not checked) [HBV X 133 peptide …] .
result: Yes

query: Check if binding affinity ratio (IC50 of standard peptide / IC50 of test peptide) falls below 0.003 for FIIFLFIL (modifications not checked) [HBV ENV 243 FIIFLFIL] .
result: Yes

query: Check if binding affinity ratio (IC50 of standard peptide / IC50 of test peptide) falls below 0.003 for FLFILLLCL (modifications not checked) [HBV ENV 246 …] .
result: Yes

query: Check if binding affinity ratio (IC50 of standard peptide / IC50 of test peptide) falls below 0.003 for GLSPTVWL (modifications not checked) [HBV ENV 348 peptide GLSPTVWL] .
result: No

query: Check if binding affinity ratio (IC50 of standard peptide / IC50 of test peptide) falls below 0.003 for SLNFMGYVI (modifications not checked) [HBV POL 581 9-mer …] .
result: No

query: Check if binding affinity ratio (IC50 of standard peptide / IC50 of test peptide) falls below 0.003 for SVRFSWLSLL (modifications not checked) [HBV ENV 330 peptide …] .
result: Yes

query: Check if binding affinity ratio (IC50 of standard peptide / IC50 of test peptide) falls below 0.003 for IVGLLGFAA (modifications not checked) [HBV POL 625 peptide …] .
result: Yes
